Below, each of the molecules is paired with its reported APE1 percent activity, Replicate 3 value.
target: APE1 (Homo sapiens); construct: purchased New England Biolabs (NEB) M0282S; experiment: APE1 fluorescent oligonucleotide activity assay (abasic site substrate); assay type: biochemical
Sequence (P27695 whole entry): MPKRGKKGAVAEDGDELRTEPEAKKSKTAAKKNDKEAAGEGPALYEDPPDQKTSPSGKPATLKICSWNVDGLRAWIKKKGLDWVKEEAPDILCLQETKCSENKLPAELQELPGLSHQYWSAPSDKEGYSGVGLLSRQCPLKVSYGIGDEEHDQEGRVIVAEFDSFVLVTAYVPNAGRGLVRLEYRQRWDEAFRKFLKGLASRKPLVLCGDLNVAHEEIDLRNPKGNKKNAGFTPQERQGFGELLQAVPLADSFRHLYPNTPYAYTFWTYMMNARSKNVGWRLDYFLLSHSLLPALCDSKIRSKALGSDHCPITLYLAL
PROPERTY: APE1 percent activity, Replicate 3 (%)

molecule="C/C(C[C@H](c1ccccc1)c1c(O)c2ccccc2oc1=O)=N\\Nc1ccc([N+](=O)[O-])cc1[N+](=O)[O-] [AD3]" test_result=104.006
molecule="C/C(=N\\Nc1ccc([N+](=O)[O-])cc1[N+](=O)[O-])c1ccc(-n2nncc2C(C)(C)C)cc1 [AD7]" test_result=119.588
molecule="O=C(NCCCCCCNC(=O)Nc1cccc([N+](=O)[O-])c1)Nc1cccc([N+](=O)[O-])c1 [AD32]" test_result=111.118
molecule="O=C(O)[C@H](CCCCNc1ccc([N+](=O)[O-])cc1[N+](=O)[O-])Nc1ccc([N+](=O)[O-])cc1[N+](=O)[O-] [AD2]" test_result=97.7464
molecule="Cc1cc(=O)oc2c3c(ccc12)O/C(=N/Nc1ccc([N+](=O)[O-])cc1[N+](=O)[O-])C3=O [AD5]" test_result=109.094
molecule="O=C1c2ccc(Oc3ccc4c(c3)C(=O)N(Nc3ccc([N+](=O)[O-])cc3[N+](=O)[O-])C4=O)cc2C(=O)N1Nc1ccc([N+](=O)[O-])cc1[N+](=O)[O-] [AD13]" test_result=67.6438
molecule="O=C(CCCCCCCCCCC(=O)Nc1cccc([N+](=O)[O-])c1)Nc1cccc([N+](=O)[O-])c1 [AD11]" test_result=71.7475

FYI, the data here is from paper PMC11078990.
